Tested on: HOP-62 NSCLC
experiment-summary: NCI-60 one-dose screen, 48 h (100 = growth as untreated, 0 = no growth, -100 = all killed)
stated-conditions: 10 µM unless noted
The panel holds about 83,000 compounds, 20% with a hit somewhere; the sample as a whole holds those more often. Activity calls are given as the source filed them. Rule for the calls: active = growth percent below 10; inactive = the rest.
measurement-name: growth

Fill in the blank: the reported growth of COc1ccc2[nH]cc(-c3cc(N)n4nc(-c5c[nH]c6ccc(OC)cc56)cc4n3)c2c1 is ____. 76.2% (inactive)

Fill in the blank: the reported growth of O=c1[nH]c2ccc(Cl)cc2cc1CSc1ccccc1Nc1nccc(-c2ccc(Cl)cc2)n1 is ____. 101% (inactive)

Fill in the blank: the reported growth of N#Cc1ccc(C(=O)CSc2nc(Nc3ccc(S(N)(=O)=O)cc3)c3ccccc3n2)cc1 is ____. 99.2% (inactive)

Fill in the blank: the reported growth of N/C(=N\c1nc2c(Cl)cc(Cl)cc2s1)C(Cl)(Cl)Cl is ____. 20.1% (inactive)

Fill in the blank: the reported growth of COc1ccc([C@@H]2c3[nH]c4ccccc4c3CC3C(=O)N(C4CCN(Cc5c(F)cccc5F)CC4)CC(=O)N32)c(OC)c1 (stereo partly specified) is ____. 54.8% [5.26 µM] (inactive)

Fill in the blank: the reported growth of COc1ccc(/C=N/Nc2ccnc3cc(Cl)ccc23)cc1Cl is ____. -42.9% (active)

Fill in the blank: the reported growth of Clc1ccc(Cc2nnc3sc(-c4cccnc4)nn23)cc1 is ____. 107% (inactive)

Fill in the blank: the reported growth of COc1ccc(COc2ccc(/C=C3/C(=O)Nc4cc(Cl)ccc43)cc2)cc1 is ____. 95.4% (inactive)

Fill in the blank: the reported growth of C=C1CC[C@H]2[C@@](C)(CCC3OC(c4ccc(OCc5cn(C6CC(OC(C)=O)C(OC(C)=O)C(COC(C)=O)O6)nn5)cc4)OC[C@]32C)[C@@H]1/C=C/C1=CCOC1=O (stereo partly specified) is ____. 85.5% (inactive)

Fill in the blank: the reported growth of O=c1[nH]c2ccccc2cc1CSc1ccccc1Nc1nccc(-c2ccc(C(F)(F)F)cc2)n1 is ____. 78.5% (inactive)

Fill in the blank: the reported growth of COc1ccc(-c2nc3ccc(-c4nnc(SCC(=O)Nc5ccc(C(=O)/C=C/c6ccccc6)cc5)o4)cc3[nH]2)cc1OC is ____. 101% (inactive)

Fill in the blank: the reported growth of C=CCn1c(SCC(=O)c2ccccc2)nnc1-c1c[nH]c2ccccc12 is ____. 92.5% (inactive)

Fill in the blank: the reported growth of Cc1sc2nc(NCc3ccccc3Cl)[nH]c(=O)c2c1C is ____. 93.4% (inactive)

Fill in the blank: the reported growth of CC(C)(C)Nc1nc2c(OCCc3ccccc3)cccn2c1-c1ccc(O)cc1 is ____. 80.3% (inactive)

Fill in the blank: the reported growth of CN(C)CCCOc1c2ccc(Cl)cc2nc2c1oc1ccc(Cl)cc12 is ____. 32.8% (inactive)

Fill in the blank: the reported growth of c1ccc2c(NCCCN3CCOCC3)c3oc4ccccc4c3nc2c1 is ____. -13.4% (active)

Fill in the blank: the reported growth of c1ccc2c(NCCCn3ccnc3)c3oc4ccccc4c3nc2c1 is ____. 19.5% (inactive)

Fill in the blank: the reported growth of O=C(c1ccc(O)cc1)C1[C@H](c2ccc(Cl)cc2)[C@@H](c2ccccc2)NC12C(=O)Nc1ccc(Cl)cc12 (stereo partly specified) is ____. 64.6% (inactive)

Fill in the blank: the reported growth of COc1cc2nc(-c3ccc(Cl)cc3)cc(OCCCNCC3CCCO3)c2cc1OC (stereo unspecified) is ____. 64.3% (inactive)

Fill in the blank: the reported growth of CN1CCN(Cc2ccc(NC(=O)c3cncc(C#Cc4cnc5ccc(N6CCSCC6)nn45)c3)cc2C(F)(F)F)CC1 is ____. -31.1% (active)

Fill in the blank: the reported growth of CS(=O)(=O)c1ccc(-n2cc(/C=C/C(=O)c3ccc(NC(=O)CO[N+](=O)[O-])cc3)c(-c3ccc(Cl)cc3)n2)cc1 is ____. 103% (inactive)

Fill in the blank: the reported growth of CN1CCN(Cc2ccc(NC(=O)c3cncc(C#Cc4cnc5[nH]ncc5c4)c3)cc2C(F)(F)F)CC1 is ____. 50.8% (inactive)

Fill in the blank: the reported growth of Cn1cc(-c2cc(N)n3nc(-c4cn(C)c5ccc(Cl)cc45)cc3n2)c2cc(Cl)ccc21 is ____. 102% (inactive)

Fill in the blank: the reported growth of COC(=O)C(Cc1ccccc1)NS(=O)(=O)/N=C1\NC(=O)NC1=C(Cl)Cl (stereo unspecified) is ____. 101% (inactive)

Fill in the blank: the reported growth of COc1cc(N=Cc2sc(Nc3nccs3)nc2O)cc(OC)c1OC is ____. 80.1% (inactive)

Fill in the blank: the reported growth of Cn1cc(-c2cc(N)n3nc(-c4cn(C)c5ccc(Br)cc45)cc3n2)c2cc(Br)ccc21 is ____. 94.8% (inactive)

Fill in the blank: the reported growth of O=C1C2=C(C(=O)c3c(O)cccc31)C(c1ccco1)c1sc(=O)[nH]c1S2 (stereo unspecified) is ____. -72.2% (active)

Fill in the blank: the reported growth of O=C(CSc1nc2sc3c(c2c(=O)n1-c1ccc(Cl)cc1)CCCC3)NNC(=O)Nc1ccc(Cl)c(C(F)(F)F)c1 is ____. 58.8% (inactive)

Fill in the blank: the reported growth of O=C1NC(=C(Cl)Cl)/C(=N/S(=O)(=O)N2CCCCC2CC2(C(F)(F)F)N=N2)N1 (stereo unspecified) is ____. 96% (inactive)

Fill in the blank: the reported growth of CN(C)c1ccc(/C=c2\sc3nc4ccccc4n3c2=O)cc1 is ____. 108% (inactive)

Fill in the blank: the reported growth of Clc1ccc2c(NCCCN3CCOCC3)c3oc4ccc(Cl)cc4c3nc2c1 is ____. 67.2% (inactive)

----------
Tested on: UO-31 renal
experiment-summary: NCI-60 one-dose screen, 48 h (100 = growth as untreated, 0 = no growth, -100 = all killed)
stated-conditions: 10 µM unless noted
This is part of a sample that, as a whole, favours compounds with a hit. Of some 83,000 tested, about 20% had one in any assay.
Exercise: state measured growth for each of the compounds provided.
Numbers only; they are read as %.

Fill in the blank: the reported growth of COc1ccccc1/C=C/C=N/NC1=NC2C(S1)N(C)C(=O)N2C (stereo not given) is ____. 49

Fill in the blank: the reported growth of C=CCn1c(SCC(=O)c2ccc(Br)cc2)nnc1-c1c[nH]c2ccccc12 is ____. 68.4

Fill in the blank: the reported growth of OC1CCN(CCCOc2c3ccc(Cl)cc3nc3c2oc2ccc(Cl)cc23)CC1 is ____. 7.4

Fill in the blank: the reported growth of O=C(O)CCCCCN1C(=O)/C(=C/c2ccc(O)c(O)c2)SC1=S is ____. 90.4

Fill in the blank: the reported growth of COc1cc2nc(-c3ccc(C)cc3)cc(OCCCNCC3CCCO3)c2cc1OC (stereo not given) is ____. 72

----------
Tested on: COLO 205 colon
experiment-summary: NCI-60 one-dose screen, 48 h
stated-conditions: 10 µM unless noted
This is part of a sample that, as a whole, favours compounds with a hit. Of some 83,000 tested, about 20% had one in any assay. Active and inactive are the calls of the source. Rule for the calls: active = growth percent below 10; inactive = the rest.
Use one of these outcomes when replying: true (1) = active, false (0) = inactive

Which outcome was entered for the molecule COc1cccc(OC)c1-c1nnn(C)c1C(=S)N1CCN(c2ccc([N+](=O)[O-])cc2Cl)CC1 in this test? false (0)

Which outcome was entered for the molecule CCCSc1nc(Nc2ccc(/C(C)=N\NC(N)=S)cc2)c(C#N)c(-c2ccc(OC)cc2)n1 in this test? false (0)

Which outcome was entered for the molecule CS(=O)(=O)c1ccc(-n2cc(/C=C/C(=O)c3ccc(NC(=O)CO[N+](=O)[O-])cc3)c(-c3ccc(Cl)cc3)n2)cc1 in this test? false (0)

Which outcome was entered for the molecule Cn1ccnc1C(=O)/C=C/c1ccc(NC(=O)Nc2ccc(Cl)cc2)cc1 in this test? false (0)

Which outcome was entered for the molecule NS(=O)(=O)c1cccc(Nc2nc(SCC(=O)c3ccc(Cl)cc3)nc3ccccc23)c1 in this test? false (0)

Which outcome was entered for the molecule [Cl][Ru].c1ccc(-c2cccc(-c3ccccn3)n2)nc1.c1ccc(-c2ccnc3c2ccc2c(-c4ccccc4)ccnc23)cc1 in this test? true (1)

Which outcome was entered for the molecule COc1cc2nc(-c3ccc(Cl)cc3)cc(OCCCNCC3CCCO3)c2cc1OC (stereo not given) in this test? false (0)

Which outcome was entered for the molecule CCOc1ccc([C@H]2C(C(=O)c3ccc(Cl)cc3)C3(N[C@@H]2c2ccccc2)C(=O)Nc2ccc(Br)cc23)cc1 (stereo not given in full) in this test? false (0)

Which outcome was entered for the molecule O=C(N/N=C/c1ccc(Cl)s1)c1[nH]c2ccc(Br)cc2c1-c1ccccc1 in this test? true (1)

Which outcome was entered for the molecule CC(C)NC(=O)c1cc(-c2ccc(NC(=O)Nc3ccc(N4CCOCC4)c(C(F)(F)F)c3)cc2)nc2cccnc12 in this test? false (0)

Which outcome was entered for the molecule COc1cc(-c2nc3ccc(-c4nnc(SCC(=O)Nc5ccc(C(=O)/C=C/c6ccc(Cl)cc6)cc5)o4)cc3[nH]2)cc(OC)c1OC in this test? false (0)

Which outcome was entered for the molecule c1ccc(CNc2ncnc3ccc(-c4cnc5[nH]ncc5c4)cc23)cc1 in this test? false (0)

Which outcome was entered for the molecule CCN1C(=S)N(CC)C2C1NN=C1SC(c3ccccc3)=CC(=O)N12 (stereo not given) in this test? false (0)

Which outcome was entered for the molecule COC1CCN(Cc2ccc3c(NNC(=O)c4cnccn4)nc4cc(F)ccc4n23)C1 (stereo not given) in this test? false (0)

Which outcome was entered for the molecule COc1ccc(C(=O)/C=C/c2ccc(Oc3nc(NCCO)nc(N4CCOCC4)n3)c(OC)c2)cc1 in this test? false (0)

Which outcome was entered for the molecule CC(=O)Oc1ccccc1C(=O)Nc1ccc(C(=O)/C=C/c2ccncc2)cc1 in this test? false (0)

Which outcome was entered for the molecule Cc1sc2nc(NCc3ccccc3Cl)[nH]c(=O)c2c1C in this test? false (0)

Which outcome was entered for the molecule Nc1c(C(=O)Nc2ccc(Cl)cc2)sc2nc(-c3cnccn3)cc(-c3cccs3)c12 in this test? false (0)

Which outcome was entered for the molecule CN1CCN(Cc2ccc(NC(=O)c3cncc(C#Cc4cnc5ccc(N6CCSCC6)nn45)c3)cc2C(F)(F)F)CC1 in this test? true (1)

Which outcome was entered for the molecule COc1ccc(/C=N/NC(=O)c2[nH]c3ccc(Br)cc3c2-c2ccccc2)s1 in this test? true (1)

Which outcome was entered for the molecule O=C1Nc2cc(Cl)ccc2/C1=C\c1ccc(OCc2ccc([N+](=O)[O-])cc2)cc1 in this test? false (0)

Which outcome was entered for the molecule OC1CCc2c(-c3ccc4ncnc(N5CCc6cc(F)c(Cl)cc65)c4c3)cncc21 (stereo not given) in this test? false (0)

Which outcome was entered for the molecule CN(C)CCCNc1c2ccc(Cl)cc2nc2c1oc1ccccc12 in this test? true (1)

Which outcome was entered for the molecule O=c1/c(=C\c2ccc(-c3ccccc3)o2)sc2nc(-c3ccccc3)nn12 in this test? false (0)

Which outcome was entered for the molecule COC(=O)C(Cc1ccccc1)NS(=O)(=O)/N=C1\NC(=O)NC1=C(Cl)Cl (stereo not given) in this test? false (0)
